- Test system: pERK in Lovo cells (KRAS-G13D)
- PROTOCOL TEXT: Phospho-ERK inhibition (AlphaLISA), Lovo
- Format: cell-based, human
- SETTINGS: Lovo
pIC50: −log10 of the molar value.

{"SMILES": "Nc1cccc2c1ncn2-c1ccc2ncnc(Nc3c(F)ccc(NS(=O)(=O)c4cccc(Cl)c4Cl)c3F)c2n1", "TARGET OR SYSTEM": "pERK in Lovo cells (KRAS-G13D)", "pIC50": "6.52 to 7.52"}
{"SMILES": "CC1(O)CCN(c2cccc3c2ncn3-c2ccc3ncnc(Nc4c(F)ccc(NS(=O)(=O)c5cccc(Cl)c5Cl)c4F)c3n2)CC1", "TARGET OR SYSTEM": "pERK in Lovo cells (KRAS-G13D)", "pIC50": "6.52 to 7.52"}

====

- TARGET OR SYSTEM: CRAF (Homo sapiens)
- Sequence (P04049 whole entry, looked up): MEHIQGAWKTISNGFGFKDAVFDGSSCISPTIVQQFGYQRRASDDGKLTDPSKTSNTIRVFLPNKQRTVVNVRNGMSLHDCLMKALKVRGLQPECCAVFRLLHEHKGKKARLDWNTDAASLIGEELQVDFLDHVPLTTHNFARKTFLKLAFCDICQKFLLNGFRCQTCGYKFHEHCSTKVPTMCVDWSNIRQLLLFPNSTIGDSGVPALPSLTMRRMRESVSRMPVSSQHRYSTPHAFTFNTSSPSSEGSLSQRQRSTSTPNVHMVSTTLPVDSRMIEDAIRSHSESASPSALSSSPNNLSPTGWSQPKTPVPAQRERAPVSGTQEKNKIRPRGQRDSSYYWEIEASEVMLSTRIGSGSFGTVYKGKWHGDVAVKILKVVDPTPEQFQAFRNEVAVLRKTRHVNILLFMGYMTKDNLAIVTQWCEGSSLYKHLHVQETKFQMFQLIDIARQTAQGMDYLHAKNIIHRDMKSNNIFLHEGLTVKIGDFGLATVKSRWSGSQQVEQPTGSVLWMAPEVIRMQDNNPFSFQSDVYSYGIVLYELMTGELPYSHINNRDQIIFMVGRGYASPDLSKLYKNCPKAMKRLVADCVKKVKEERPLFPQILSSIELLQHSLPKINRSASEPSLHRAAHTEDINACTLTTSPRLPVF
- PROTOCOL TEXT: CRAF kinase activity assay (ADP-Glo)
- Assay type: biochemical
- SETTINGS: read-out: Kinase IC50 (nM) CRAF
Listing: IC50 of selected compounds
MEASURED PROPERTY: IC50

{"SMILES": "COc1ccc(S(=O)(=O)Nc2ccc(F)c(Nc3ncnc4ccc(-n5cnc6ccccc65)nc34)c2F)cc1", "REPORTED VALUE": "10 to 50 nM"}
{"SMILES": "CC(C)NCc1cccc2c1ncn2-c1ccc2ncnc(Nc3c(F)ccc(NS(=O)(=O)c4ccccc4Cl)c3F)c2n1", "REPORTED VALUE": "10 to 50 nM"}
{"SMILES": "CN(C)Cc1cccc2c1ncn2-c1ccc2ncnc(Nc3c(F)ccc(NS(=O)(=O)c4ccccc4Cl)c3F)c2n1", "REPORTED VALUE": "10 to 50 nM"}
{"SMILES": "CC(=O)c1cn(-c2ccc3ncnc(Nc4c(F)ccc(NS(=O)(=O)c5ccccc5Cl)c4F)c3n2)c2ccccc12", "REPORTED VALUE": "> 50 nM"}
{"SMILES": "O=S(=O)(Nc1ccc(F)c(Nc2ncnc3ccc(-n4nc(-c5nnc(O)o5)c5ccccc54)nc23)c1F)c1cccc(Cl)c1Cl", "REPORTED VALUE": "< 10 nM"}
{"SMILES": "O=S(=O)(Nc1ccc(F)c(Nc2ncnc3ccc(-n4nc(-c5ncc[nH]5)c5ccccc54)nc23)c1F)c1cccc(Cl)c1Cl", "REPORTED VALUE": "> 50 nM"}
{"SMILES": "COc1ccc(S(=O)(=O)Nc2ccc(F)c(Nc3ncnc4ccc(-c5cncs5)nc34)c2F)c(C)c1", "REPORTED VALUE": "10 to 50 nM"}

====

- Tested on: pERK in HCT-116 cells (KRAS G13D)
- PROTOCOL TEXT: Phospho-ERK inhibition (AlphaLISA SureFire Ultra p-ERK 1/2), HCT116
- Type: cell-based, human
- SETTINGS: HCT116 cells; Ymin in brackets
// reported HCT116 pERK Ymin % per item

{"COMPOUND": "O=S(=O)(Nc1ccc(F)c(Nc2ncnc3ccc(-n4cnc5c(CN6CCNCC6)cccc54)nc23)c1F)c1ccccc1Cl [Ex 230]", "HCT116 pERK Ymin %, %": "−3"}
{"COMPOUND": "COc1ccc(S(=O)(=O)Nc2ccc(F)c(Nc3ncnc4ccc(-n5cc(C(N)=O)c6ccccc65)nc34)c2F)c(C)c1 [Example 69]", "HCT116 pERK Ymin %, %": "−1"}
{"COMPOUND": "NC(=O)c1ccc(-c2ccc3ncnc(Nc4c(F)ccc(NS(=O)(=O)c5ccccc5Cl)c4F)c3n2)cc1 [Example 81]", "HCT116 pERK Ymin %, %": "−4"}
{"COMPOUND": "COc1ccc(S(=O)(=O)Nc2ccc(F)c(Nc3ncnc4ccc(-n5cnc(C)c5C)nc34)c2F)cc1 [Ex 32]", "HCT116 pERK Ymin %, %": 17}
{"COMPOUND": "COc1ccc(S(=O)(=O)Nc2ccc(F)c(Nc3ncnc4ccc(-c5ccsc5)nc34)c2F)c(C)c1 [Ex 58]", "HCT116 pERK Ymin %, %": "−1"}
{"COMPOUND": "O=S(=O)(Nc1ccc(F)c(Nc2ncnc3ccc(-n4cnc5c(CN6CCCCC6)cccc54)nc23)c1F)c1ccccc1Cl [Ex 228]", "HCT116 pERK Ymin %, %": 2.0}
{"COMPOUND": "CN(C)C(=O)c1cn(-c2ccc3ncnc(Nc4c(F)ccc(NS(=O)(=O)c5ccccc5Cl)c4F)c3n2)c2ccccc12 [Ex 87]", "HCT116 pERK Ymin %, %": "−4.4"}
